Tgt: Non-receptor tyrosine-protein kinase TNK1 (Homo sapiens)
Sequence (Q13470 whole entry): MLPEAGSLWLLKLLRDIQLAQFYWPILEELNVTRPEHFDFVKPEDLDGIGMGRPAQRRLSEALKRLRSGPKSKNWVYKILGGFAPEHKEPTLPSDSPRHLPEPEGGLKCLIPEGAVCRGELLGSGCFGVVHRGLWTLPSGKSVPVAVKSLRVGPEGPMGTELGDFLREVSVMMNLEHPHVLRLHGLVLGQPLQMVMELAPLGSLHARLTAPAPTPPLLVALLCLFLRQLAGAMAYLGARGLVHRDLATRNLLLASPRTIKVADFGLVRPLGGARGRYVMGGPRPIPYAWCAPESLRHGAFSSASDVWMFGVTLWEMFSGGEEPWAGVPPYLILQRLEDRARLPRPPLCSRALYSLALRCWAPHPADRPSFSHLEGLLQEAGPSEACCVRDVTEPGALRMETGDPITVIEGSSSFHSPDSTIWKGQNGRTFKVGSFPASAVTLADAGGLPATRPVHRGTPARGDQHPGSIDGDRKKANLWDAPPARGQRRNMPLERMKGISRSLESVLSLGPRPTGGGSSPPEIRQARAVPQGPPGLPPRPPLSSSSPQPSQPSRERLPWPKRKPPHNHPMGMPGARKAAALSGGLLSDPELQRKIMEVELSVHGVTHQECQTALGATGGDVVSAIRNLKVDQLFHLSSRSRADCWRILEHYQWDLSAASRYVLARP
Activity calls are given as the source filed them.
Choose one outcome from this list and give only that: active, inactive

O=C(NC[C@H](O)CO)c1ccncc1Nc1ccc(I)cc1F	inactive
Cc1c(NC(=O)OC[C@@H]2COCCN2)cn2ncnc(Nc3ccc4c(cnn4Cc4cccc(F)c4)c3)c12	inactive
COc1cc(F)c(F)c(Nc2ccc(I)cc2F)c1NS(=O)(=O)C1(C[C@H](O)CO)CC1	inactive
COc1cccc2cc(-c3nc([C@H]4CC[C@H](C(=O)O)CC4)n4ncnc(N)c34)[nH]c12	inactive
CCN1CCN(Cc2ccc(Nc3ncc(F)c(-c4cc(F)c5nc(C)n(C(C)C)c5c4)n3)nc2)CC1	inactive

Incoming: Assay outcome for C=CCN(/C=C1/C(=O)O[C@H](COC)[C@@]2(C)C1=C(O)C(=O)C1=C2[C@H](OC(C)=O)C[C@]2(C)C(=O)CC[C@@H]12)CC=C : what was it?
Outgoing: inactive

Incoming: Kindly provide the recorded test outcome for the following compound: N#CCNC(=O)c1ccc(-c2ccnc(Nc3ccc(N4CCOCC4)cc3)n2)cc1
Outgoing: inactive

Incoming: In this assay, the call recorded for O=S(=O)(c1cccc2c(O)nccc12)N1CCCNCC1 [HYDROXYFASUDIL] was what?
Outgoing: inactive

Incoming: State the result this test recorded for FC(F)(F)c1ccc(CNc2ccc(Cc3c[nH]c4ncc(Cl)cc34)cn2)cn1 .
Outgoing: inactive

Incoming: Which outcome was assigned to CNC(=O)c1cc(COc2nnc(Nc3ccc(Cl)cc3)c3ccoc23)ccn1 in this test?
Outgoing: inactive

Incoming: Give the logged outcome of this assay for the following compound: Cc1cc(Nc2nc(N[C@@H](C)c3ncc(F)cn3)ncc2Cl)n[nH]1
Outgoing: active

Incoming: For this compound, state the assay outcome: C[C@]1(O)C[C@@H](c2nc(-c3ccc4ccc(-c5ccccc5)nc4c3)c3c(N)nccn32)C1
Outgoing: inactive

Incoming: What was the test verdict on Cc1cc(-c2cc(OC(=O)c3ccccc3)ccc2Cl)cc2nnc(Nc3ccc(OCCN4CCCC4)cc3)nc12 ?
Outgoing: inactive

Incoming: # fetch the recorded call for CCOc1ccn(-c2ccc(F)cc2)c(=O)c1C(=O)Nc1ccc(Oc2ccnc(N)c2Cl)c(F)c1 here
Outgoing: inactive

Incoming: Please indicate how the test categorized C=CCn1c(=O)c2cnc(Nc3ccc(N4CCN(C)CC4)cc3)nc2n1-c1cccc(C(C)(C)O)n1 .
Outgoing: inactive

Incoming: Status in this test for O=C(Nc1ccc(OC(F)(F)F)cc1)c1sccc1NCc1ccnc2ccccc12 ?
Outgoing: inactive

Incoming: Can you look up the reported call for CN1CCN(c2nc(C3=C(c4c[nH]c5ccccc45)C(=O)NC3=O)c3ccccc3n2)CC1 for me?
Outgoing: inactive

Incoming: In this assay, the call recorded for COCCN1CCN(Cc2ccc(-c3n[nH]c4c3C(=O)c3c(NC(=O)NN5CCOCC5)cccc3-4)cc2)CC1 was what?
Outgoing: inactive

Incoming: Recorded call for C=CC(=O)Nc1cccc(Nc2nc(Nc3ccc(N4CCN(C(C)=O)CC4)cc3OC)ncc2C(F)(F)F)c1 ?
Outgoing: active

Incoming: Answer briefly: the call reported for C#Cc1cccc(Nc2ncnc3cc4c(cc23)OCCOCCOCCO4)c1 in this assay.
Outgoing: inactive

Incoming: How was CCN(CCCOc1ccc2c(Nc3cc(CC(=O)Nc4cccc(F)c4)n[nH]3)ncnc2c1)CCOP(=O)(O)O classified in this test?
Outgoing: inactive

###

Tgt: Cyclin-dependent kinase 13 (Homo sapiens)
Sequence (Q14004 whole entry): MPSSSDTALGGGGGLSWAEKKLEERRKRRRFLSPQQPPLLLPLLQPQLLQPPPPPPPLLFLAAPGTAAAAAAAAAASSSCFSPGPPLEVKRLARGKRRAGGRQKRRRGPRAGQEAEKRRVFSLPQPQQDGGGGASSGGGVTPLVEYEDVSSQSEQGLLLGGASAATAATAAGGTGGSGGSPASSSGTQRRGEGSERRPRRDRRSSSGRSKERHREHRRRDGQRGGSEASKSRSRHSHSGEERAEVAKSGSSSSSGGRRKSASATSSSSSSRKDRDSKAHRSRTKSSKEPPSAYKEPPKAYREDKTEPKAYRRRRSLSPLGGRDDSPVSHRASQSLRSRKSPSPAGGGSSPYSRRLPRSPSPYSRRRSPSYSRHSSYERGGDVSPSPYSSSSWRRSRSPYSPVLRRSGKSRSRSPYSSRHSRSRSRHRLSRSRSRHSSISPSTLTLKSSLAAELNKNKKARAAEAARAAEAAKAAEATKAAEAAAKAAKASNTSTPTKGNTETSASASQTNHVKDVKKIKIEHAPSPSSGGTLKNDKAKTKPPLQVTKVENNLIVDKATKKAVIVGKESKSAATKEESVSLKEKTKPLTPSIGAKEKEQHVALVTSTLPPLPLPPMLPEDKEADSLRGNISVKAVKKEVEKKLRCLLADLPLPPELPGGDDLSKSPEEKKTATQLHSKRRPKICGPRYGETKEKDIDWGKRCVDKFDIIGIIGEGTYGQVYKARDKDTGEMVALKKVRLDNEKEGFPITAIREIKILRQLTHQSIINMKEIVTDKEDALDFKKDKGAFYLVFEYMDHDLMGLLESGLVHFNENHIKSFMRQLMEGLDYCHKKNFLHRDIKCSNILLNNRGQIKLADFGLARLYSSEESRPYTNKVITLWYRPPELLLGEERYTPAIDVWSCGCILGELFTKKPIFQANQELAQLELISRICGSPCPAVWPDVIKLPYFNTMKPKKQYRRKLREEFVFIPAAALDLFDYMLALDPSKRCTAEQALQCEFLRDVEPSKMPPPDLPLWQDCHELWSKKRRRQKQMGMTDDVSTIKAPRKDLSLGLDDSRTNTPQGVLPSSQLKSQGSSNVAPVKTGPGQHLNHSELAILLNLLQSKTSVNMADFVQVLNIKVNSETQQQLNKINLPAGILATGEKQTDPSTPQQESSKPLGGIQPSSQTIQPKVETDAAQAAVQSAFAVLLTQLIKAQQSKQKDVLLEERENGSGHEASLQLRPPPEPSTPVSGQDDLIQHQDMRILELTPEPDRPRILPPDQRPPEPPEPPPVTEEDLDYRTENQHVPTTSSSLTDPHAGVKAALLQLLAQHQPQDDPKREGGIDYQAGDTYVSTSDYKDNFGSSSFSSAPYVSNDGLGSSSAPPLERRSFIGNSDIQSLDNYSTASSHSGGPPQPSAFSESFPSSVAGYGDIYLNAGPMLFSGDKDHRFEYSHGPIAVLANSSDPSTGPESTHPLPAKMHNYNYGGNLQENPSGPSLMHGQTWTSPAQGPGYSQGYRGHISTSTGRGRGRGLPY
Calls of active or inactive are those of the source.
Pick one and only one: true for active, false for inactive

Record excerpt, results attached:
O[C@H]1CC[C@H](Nc2ncc3nc(Nc4c(F)cc(F)cc4F)n([C@H]4CCOC4)c3n2)CC1	false
CNC(=O)c1ccc(Nc2ncc(C(F)(F)F)c(NCc3nccnc3N(C)S(C)(=O)=O)n2)cc1	true
Cc1c(NC(=O)OC[C@@H]2COCCN2)cn2ncnc(Nc3ccc4c(cnn4Cc4cccc(F)c4)c3)c12	false

Incoming: Could you please tell me the result logged for N#CCNC(=O)c1ccc(-c2ccnc(Nc3ccc(N4CCOCC4)cc3)n2)cc1 in this assay?
Outgoing: false

Incoming: How was C[C@@H]1COC(Nc2ccc3ncnc(Nc4ccc(OCc5nccs5)c(Cl)c4)c3c2)=N1 classified in this test?
Outgoing: false

Incoming: Write down the call the test reported for this compound. Item: CCN1CCN(Cc2ccc(Nc3ncc(F)c(-c4cc(F)c5nc(C)n(C(C)C)c5c4)n3)nc2)CC1
Outgoing: false

Incoming: What outcome does the record of this test show for CC(C)(O)CC(=O)NCCn1ccc2ncnc(Nc3ccc(Oc4cccc(C(F)(F)F)c4)c(Cl)c3)c21 ?
Outgoing: false

Incoming: Identify the outcome logged in this assay for the compound shown: CC1(COc2ccc3c(c2)ncn3-c2ccc3cccc(N4CCC(N)CC4)c3n2)COC1
Outgoing: false

Incoming: Per the records of this test, what outcome belongs to Cn1c(=O)c(F)c(Nc2ccc(I)cc2F)c2c(=O)n(C[C@@H](O)CO)cnc21 ?
Outgoing: false

Incoming: Please let me know the test result on file for CCOc1ccn(-c2ccc(F)cc2)c(=O)c1C(=O)Nc1ccc(Oc2ccnc(N)c2Cl)c(F)c1 .
Outgoing: false

Incoming: # fetch the recorded call for CN1CCN(c2nc(C3=C(c4c[nH]c5ccccc45)C(=O)NC3=O)c3ccccc3n2)CC1 here
Outgoing: false

Incoming: Recorded test outcome, item C=CCn1c(=O)c2cnc(Nc3ccc(N4CCN(C)CC4)cc3)nc2n1-c1cccc(C(C)(C)O)n1
Outgoing: false

Incoming: Could you check what this test reported for COc1ccc(-c2ccc3ncc4c(c3c2)n(-c2ccc(N3CCNCC3)c(C(F)(F)F)c2)c(=O)n4C)cn1 [BGT-226 FREE BASE] ?
Outgoing: false

Incoming: Just curious, what result did CN(c1ncccc1CNc1nc(Nc2ccc3c(c2)CC(=O)N3)ncc1C(F)(F)F)S(C)(=O)=O get here?
Outgoing: true

###

The source made the active and inactive calls.
Here's a batch of compounds along with measured Kd for Dual specificity protein kinase CLK1 (Homo sapiens).

c1cc(OCCN2CCCCC2)cc(-c2n[nH]c3ccc(-c4nc[nH]n4)cc23)c1	> 30 µM (inactive)
COc1cc2ncnc(Nc3ccc(F)c(Cl)c3)c2cc1NC(=O)/C=C/CN1CCCCC1 [DACOMITINIB ANHYDROUS]	> 30 µM (inactive)
COc1cc(F)c(F)c(Nc2ccc(I)cc2F)c1NS(=O)(=O)C1(C[C@H](O)CO)CC1	> 30 µM (inactive)
CCN1CCN(Cc2ccc(Nc3ncc(F)c(-c4cc(F)c5nc(C)n(C(C)C)c5c4)n3)nc2)CC1	0.007 µM (active)

Now let's try a different one.
Incoming: Look up Kd of C#Cc1cccc(Nc2ncnc3cc4c(cc23)OCCOCCOCCO4)c1 and report it.
Outgoing: > 30 µM (inactive)

###

Tgt: Tyrosine-protein kinase FRK (Homo sapiens)
Sequence (P42685 whole entry): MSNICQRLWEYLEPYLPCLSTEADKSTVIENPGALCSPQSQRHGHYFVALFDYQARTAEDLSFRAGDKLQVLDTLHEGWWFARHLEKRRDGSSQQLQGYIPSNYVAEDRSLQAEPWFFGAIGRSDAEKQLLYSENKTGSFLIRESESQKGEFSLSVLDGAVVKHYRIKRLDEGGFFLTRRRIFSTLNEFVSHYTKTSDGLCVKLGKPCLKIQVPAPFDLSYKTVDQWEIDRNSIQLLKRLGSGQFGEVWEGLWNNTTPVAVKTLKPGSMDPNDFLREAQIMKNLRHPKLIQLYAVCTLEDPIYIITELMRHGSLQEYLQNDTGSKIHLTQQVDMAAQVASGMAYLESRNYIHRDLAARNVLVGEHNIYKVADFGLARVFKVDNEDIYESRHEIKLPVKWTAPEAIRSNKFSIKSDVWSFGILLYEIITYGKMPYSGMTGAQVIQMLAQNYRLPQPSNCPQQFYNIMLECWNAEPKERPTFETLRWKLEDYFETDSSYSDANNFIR
Active and inactive are the calls of the source.
Result category, one only: active, inactive

CCOc1ccn(-c2ccc(F)cc2)c(=O)c1C(=O)Nc1ccc(Oc2ccnc(N)c2Cl)c(F)c1	active

Incoming: In this assay, the call recorded for COCCN1CCN(Cc2ccc(-c3n[nH]c4c3C(=O)c3c(NC(=O)NN5CCOCC5)cccc3-4)cc2)CC1 was what?
Outgoing: inactive

Incoming: Which outcome was entered for the compound CCc1cc2c(cc1N1CCC(N3CCOCC3)CC1)C(C)(C)c1[nH]c3cc(C#N)ccc3c1C2=O in this test?
Outgoing: inactive

Incoming: Call for entry O[C@H]1CC[C@H](Nc2ncc3nc(Nc4c(F)cc(F)cc4F)n([C@H]4CCOC4)c3n2)CC1 :
Outgoing: inactive

Incoming: // return assay outcome for Cn1cc(-c2[nH]c3cc(NC(=O)[C@H](N)C4CCCCC4)cc4c3c2C=NNC4=O)cn1
Outgoing: inactive

###

Tgt: Focal adhesion kinase 1 (Homo sapiens, UniProt Q05397)
Sequence (Q05397 whole entry): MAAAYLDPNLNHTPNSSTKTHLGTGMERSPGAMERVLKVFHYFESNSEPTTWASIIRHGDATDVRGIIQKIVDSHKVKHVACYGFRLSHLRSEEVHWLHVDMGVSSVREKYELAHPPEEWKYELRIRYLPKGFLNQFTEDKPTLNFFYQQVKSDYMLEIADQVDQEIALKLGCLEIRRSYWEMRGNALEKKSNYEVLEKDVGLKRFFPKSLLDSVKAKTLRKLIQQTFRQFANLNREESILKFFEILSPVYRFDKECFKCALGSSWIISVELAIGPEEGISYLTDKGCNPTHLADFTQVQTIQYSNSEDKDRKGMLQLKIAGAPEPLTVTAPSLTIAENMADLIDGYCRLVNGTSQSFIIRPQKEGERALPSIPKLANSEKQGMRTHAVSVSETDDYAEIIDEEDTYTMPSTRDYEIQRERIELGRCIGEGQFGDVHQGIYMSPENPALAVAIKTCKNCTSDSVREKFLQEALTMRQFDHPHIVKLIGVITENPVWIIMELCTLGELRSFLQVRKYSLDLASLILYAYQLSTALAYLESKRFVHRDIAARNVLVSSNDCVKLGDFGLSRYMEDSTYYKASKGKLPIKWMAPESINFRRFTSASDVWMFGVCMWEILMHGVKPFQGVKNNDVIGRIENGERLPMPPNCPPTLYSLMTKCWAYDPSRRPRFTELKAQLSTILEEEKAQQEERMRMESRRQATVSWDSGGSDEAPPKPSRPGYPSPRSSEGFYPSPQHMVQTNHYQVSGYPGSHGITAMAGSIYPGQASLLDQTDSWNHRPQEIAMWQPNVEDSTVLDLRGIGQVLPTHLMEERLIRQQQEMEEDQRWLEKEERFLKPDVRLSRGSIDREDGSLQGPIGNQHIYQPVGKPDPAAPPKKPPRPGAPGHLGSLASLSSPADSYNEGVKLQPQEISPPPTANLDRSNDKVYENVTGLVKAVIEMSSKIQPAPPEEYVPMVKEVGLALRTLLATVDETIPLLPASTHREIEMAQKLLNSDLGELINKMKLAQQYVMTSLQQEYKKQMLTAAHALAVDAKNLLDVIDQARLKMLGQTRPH
Active and inactive are the calls of the source.
Can you answer with just one of these options? active, inactive

Recorded results for 6 compounds are shown here.
CC(C)(O)CC(=O)NCCn1ccc2ncnc(Nc3ccc(Oc4cccc(C(F)(F)F)c4)c(Cl)c3)c21	inactive
CC[C@@](C)(Nc1ccnc(-c2c[nH]c3ncccc23)n1)C(=O)NCC(F)(F)F	inactive
O=C(O)c1ccc2c(c1)nc(Nc1cccc(Cl)c1)c1ccncc12	inactive
C=CC(=O)Nc1cccc(Nc2nc(Nc3ccc(N4CCN(C(C)=O)CC4)cc3OC)ncc2C(F)(F)F)c1	active
CCc1cc2c(cc1N1CCC(N3CCOCC3)CC1)C(C)(C)c1[nH]c3cc(C#N)ccc3c1C2=O	inactive
C=CCN(/C=C1/C(=O)O[C@H](COC)[C@@]2(C)C1=C(O)C(=O)C1=C2[C@H](OC(C)=O)C[C@]2(C)C(=O)CC[C@@H]12)CC=C	inactive

Incoming: Can you look up the reported call for O=C(NC[C@H](O)CO)c1ccncc1Nc1ccc(I)cc1F for me?
Outgoing: inactive

Incoming: So what was the verdict on O[C@H]1CC[C@H](Nc2ncc3nc(Nc4c(F)cc(F)cc4F)n([C@H]4CCOC4)c3n2)CC1 in this test?
Outgoing: inactive

Incoming: Status in this test for C#Cc1cccc(Nc2ncnc3cc4c(cc23)OCCOCCOCCO4)c1 ?
Outgoing: inactive

Incoming: Could you please tell me the result logged for Cc1cc(-c2cc(OC(=O)c3ccccc3)ccc2Cl)cc2nnc(Nc3ccc(OCCN4CCCC4)cc3)nc12 in this assay?
Outgoing: inactive

Incoming: Fill in: this test's call for CNC(=O)c1cccc(-c2ccc3c(N4CCOC[C@@H]4C)nc(N4CCOC[C@@H]4C)nc3n2)c1 is ___
Outgoing: inactive

Incoming: Please let me know the test result on file for COc1cc2ncnc(Nc3ccc(F)c(Cl)c3)c2cc1NC(=O)/C=C/CN1CCCCC1 [DACOMITINIB ANHYDROUS] .
Outgoing: inactive
